- target: HCV NS3/4A protease genotype 1b (Hepatitis C virus genotype 1b, UniProt P26663)
- testMethodNotes: HCV NS3/4A protease time-resolved fluorescence (TRF) assay, Ki against genotype 1b
- Format: biochemical
- measurementSetup: IC50 [gt-1b], NS3/4A protease TRF assay, genotype 1b enzyme 0.2 nM; K+ salt
IC50 for assorted compounds
Field note: include the unit after the figure.

Below, each entry is followed by its recorded IC50 result.
1) COc1ccc2nc(C(F)F)c3c(c2c1)CC[C@]1(C[C@H]2C(=O)N[C@]4(C(=O)NS(=O)(=O)C5(C)CC5)C[C@H]4/C=C\CCCCC[C@H](NC(=O)OC4CCC4)C(=O)N2C1)O3	4 pM
2) CC[C@@H](C)OC(=O)N[C@H]1CCCCC/C=C\[C@@H]2C[C@@]2(C(=O)NS(=O)(=O)C2(C)CC2)NC(=O)[C@@H]2C[C@]3(CCc4c(c(C5CC5)nc5ccc(OC)cc45)O3)CN2C1=O	11 pM
3) COc1ccc2nc(C(F)(F)F)c3c(c2c1)CC[C@]1(C[C@H]2C(=O)N[C@]4(C(=O)NS(=O)(=O)C5(C)CC5)C[C@H]4/C=C\CCCCC[C@H](NC(=O)OCC(C)(C)C)C(=O)N2C1)O3	28 pM
4) COc1ccc2nc(C)c3c(c2c1)CC[C@]1(C[C@H]2C(=O)N[C@]4(C(=O)NS(=O)(=O)C5(C)CC5)C[C@H]4/C=C\CCCCC[C@H](NC(=O)OC(C(C)C)C(F)(F)F)C(=O)N2C1)O3 (stereo partly shown) [Example 407]	19 pM
5) COc1ccc2nc(C3CC3)c3c(c2c1)CC[C@]1(C[C@H]2C(=O)N[C@]4(C(=O)NS(=O)(=O)C5(C)CC5)C[C@H]4/C=C\CCCCC[C@H](NC(=O)O[C@H](C)C(C)C)C(=O)N2C1)O3	21 pM
6) CC[C@@H](C)OC(=O)N[C@H]1CCCCC/C=C\[C@@H]2C[C@@]2(C(=O)NS(=O)(=O)C2(C)CC2)NC(=O)[C@@H]2C[C@]3(CCc4c(c(C(F)(F)F)nc5ccc(OC)cc45)O3)CN2C1=O	49 pM
7) COc1ccc2nc(C)c3c(c2c1)[C@H](F)C[C@]1(C[C@H]2C(=O)N[C@]4(C(=O)NS(=O)(=O)C5(C)CC5)C[C@H]4/C=C\CCCCC[C@H](NC(=O)OCC(C)(C)C)C(=O)N2C1)O3	15 pM
8) COc1ccc2nc(C(F)(F)F)c3c(c2c1)CC[C@]1(C[C@H]2C(=O)N[C@]4(C(=O)NS(=O)(=O)C5(C)CC5)C[C@H]4/C=C\CCCCC[C@H](NC(=O)OC4(C)COC4)C(=O)N2C1)O3	8 pM

Ask | Given the entry COc1ccc2nc(C)c3c(c2c1)[C@H](F)C[C@]1(C[C@H]2C(=O)N[C@]4(C(=O)NS(=O)(=O)C5(C)CC5)C[C@H]4/C=C\CCCCC[C@H](NC(=O)OCC(C)(C)F)C(=O)N2C1)O3 , what IC50 was observed with HCV NS3/4A protease genotype 1b (Hepatitis C virus genotype 1b, UniProt P26663)?
Reply | 9 pM

Ask | COc1ccc2nc(C(C)C)c3c(c2c1)[C@H](F)C[C@]1(C[C@H]2C(=O)N[C@]4(C(=O)NS(=O)(=O)C5(C)CC5)C[C@H]4/C=C\CCCCC[C@H](NC(=O)O[C@@H](C)C(C)C)C(=O)N2C1)O3 ?
Reply | 38 pM

Ask | COc1ccc2nc(C(F)F)c3c(c2c1)CC[C@]1(C[C@H]2C(=O)N[C@]4(C(=O)NS(=O)(=O)C5(C)CC5)C[C@H]4/C=C\CCCCC[C@H](NC(=O)O[C@H](C)C(C)C)C(=O)N2C1)O3 ?
Reply | 25 pM

Ask | CCOC(=O)N[C@H]1CCCCC/C=C\[C@@H]2C[C@@]2(C(=O)NS(=O)(=O)C2(C)CC2)NC(=O)[C@@H]2C[C@]3(CCc4c(c(C5CC5)nc5ccc(OC)cc45)O3)CN2C1=O ?
Reply | 29 pM

Ask | [2H]C([2H])(F)Oc1ccc2nc(C)c3c(c2c1)[C@H](F)C[C@]1(C[C@H]2C(=O)N[C@]4(C(=O)NS(=O)(=O)C5(C)CC5)C[C@H]4/C=C\CCCCC[C@H](NC(=O)OCC(C)C)C(=O)N2C1)O3 ?
Reply | 11 pM
